SYSTEM: JAK3 (Homo sapiens, UniProt P52333)
Construct: made in house; host or cells: SF9 insect cells (baculovirus)
Sequence (P52333 783-1124): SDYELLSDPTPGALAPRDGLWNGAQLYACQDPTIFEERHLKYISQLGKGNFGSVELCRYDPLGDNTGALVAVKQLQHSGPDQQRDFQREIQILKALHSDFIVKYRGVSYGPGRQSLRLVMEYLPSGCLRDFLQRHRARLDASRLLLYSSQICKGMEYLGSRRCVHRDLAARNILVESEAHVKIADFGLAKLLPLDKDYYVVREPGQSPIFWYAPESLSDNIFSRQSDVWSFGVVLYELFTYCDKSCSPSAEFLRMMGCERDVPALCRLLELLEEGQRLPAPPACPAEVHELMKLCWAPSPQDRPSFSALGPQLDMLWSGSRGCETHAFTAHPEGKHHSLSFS
TEST SUMMARY: JAK3 inhibition (Table 4)
Type: biochemical
MEASUREMENT SETUP: read-out: JAK3 Ki
PARAMETER MEASURED: Ki (nM)

(a) Cc1nc2cnc3[nH]ccc3c2n1[C@H]1CC[C@H](OC(=O)N(C)C)CC1 [Example 605]
(b) c1cc2c(ncc3nc(C4CCC4)n(C4CCNCC4)c32)[nH]1 [Example 326]
Ask | I'm curious whether a or b has the smaller Ki number. Which is it? // respond with label for picked entry
Reply | a
(a: 152 nM, b: 552 nM)

(I) OCc1nc2cnc3[nH]ccc3c2n1C1CCCOC1 (single isomer, unassigned) [Example 463]
(II) CN(C)c1nc2cnc3[nH]ccc3c2n1C1CCN(CCC#N)CC1 [Example 656]
(III) OCCc1nc2cnc3[nH]ccc3c2n1C1CCN(Cc2ccccc2)CC1 [Example 82]
(IV) N#CCCN1CCC(n2c(CNCC(F)(F)F)nc3cnc4[nH]ccc4c32)CC1 [Example 695]
Ask | Please order the records by their reported Ki, lowest number first. I'd appreciate it if you listed the labels in the requested order.
Reply | III, II, IV, I
(III: 14.2 nM, II: 37.7 nM, IV: 63.1 nM, I: 191 nM)

====

SYSTEM: JAK1 (Homo sapiens)
Construct: made in house; host or cells: SF9 insect cells (baculovirus)
Sequence (P23458 852-1154): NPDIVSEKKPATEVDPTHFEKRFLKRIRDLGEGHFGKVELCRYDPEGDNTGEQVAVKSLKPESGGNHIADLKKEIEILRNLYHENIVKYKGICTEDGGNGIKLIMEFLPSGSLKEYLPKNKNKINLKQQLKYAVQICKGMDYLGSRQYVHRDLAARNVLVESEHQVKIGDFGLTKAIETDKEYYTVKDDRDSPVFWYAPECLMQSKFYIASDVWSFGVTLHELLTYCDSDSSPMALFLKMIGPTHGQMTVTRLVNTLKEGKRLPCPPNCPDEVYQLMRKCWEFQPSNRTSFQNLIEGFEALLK
TEST SUMMARY: JAK1 inhibition (Table 4)
Format: biochemical
MEASUREMENT SETUP: read-out: JAK1 Ki
PARAMETER MEASURED: Ki (nM)

Solved cases below.
>>> df
                                   molecule  parameter_measured  unit_text  numeric_value
0  Cc1nc2cnc3[nH]ccc3c2n1C1CCC2CC(=O)NC2C1 (single isomer, unassigned) [Example 112a]                  Ki         nM           64.4
1  NC1CC(n2cnc3cnc4[nH]ccc4c32)C1 (stereo not shown)                  Ki         nM             56
2  c1cc2c(ncc3nc(C4CCCN4)n(C4CCCOC4)c32)[nH]1 (single isomer, unassigned) [Example 665]                  Ki         nM            432
3  O[C@@H]1CC[C@H](n2cnc3cnc4[nH]ccc4c32)C1                  Ki         nM           6.85
4  O=C1CCCN1c1ccc(S(=O)(=O)N2CCC(n3cnc4cnc5[nH]ccc5c43)CC2)cc1                  Ki         nM           11.9

(a) O=C(Cc1nc2cnc3[nH]ccc3c2n1C1CCCOC1)NC1CCCC1 (racemic)
(b) N#CCCN1CCC(n2c(Cc3ccc(C(N)=O)cc3)nc3cnc4[nH]ccc4c32)CC1
(c) CC(C)CC(=O)NC1CCC(n2nnc3cnc4[nH]ccc4c32)CC1 (stereo not shown)
Ask | Please order the records by their reported Ki, lowest number first. I'd appreciate it if you listed the labels in the requested order.
Reply | c, a, b
(c: 4.61 nM, a: 25.6 nM, b: 67.8 nM)
